Target protein (sequence): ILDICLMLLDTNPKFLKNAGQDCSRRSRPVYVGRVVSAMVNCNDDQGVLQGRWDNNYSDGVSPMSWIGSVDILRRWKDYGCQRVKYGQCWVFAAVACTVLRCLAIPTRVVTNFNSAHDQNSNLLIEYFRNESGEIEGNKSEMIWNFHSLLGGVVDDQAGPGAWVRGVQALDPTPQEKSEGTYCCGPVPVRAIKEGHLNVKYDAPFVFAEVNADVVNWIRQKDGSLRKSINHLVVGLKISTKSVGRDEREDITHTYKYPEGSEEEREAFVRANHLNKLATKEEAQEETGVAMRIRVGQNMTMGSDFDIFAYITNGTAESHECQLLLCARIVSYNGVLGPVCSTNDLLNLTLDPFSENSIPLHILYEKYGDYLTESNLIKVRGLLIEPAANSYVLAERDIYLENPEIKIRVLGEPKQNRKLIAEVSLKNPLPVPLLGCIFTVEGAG
Would you kindly list pIC50 for each of these molecules?
Answers are plain numbers, as −log10 of the molar value.

>>> reported_result("CCCCN(CCO)CCC(=O)c1ccco1")
6.08
>>> reported_result("CC(C)(C)N(CCO)CCC(=O)c1cccs1")
5.17
>>> reported_result("CCc1nccnc1C(=O)CCN(CCO)CCO")
4.82
>>> reported_result("O=C(CCN(CCO)CCO)c1ccco1")
6.44
>>> reported_result("CN(CCC(=O)c1cccnc1)Cc1ccccc1")
5.40

# batch: return pIC50 for each of the 2 molecules below
1. CCN(CCC(=O)c1ccco1)Cc1ccccc1
2. CC(C)N(CCO)CCC(=O)c1cccnc1

6.26
5.13

# batch: return pIC50 for each of the 3 molecules below
1. CN(CCO)CCC(=O)c1cccs1
2. CN(CCC(=O)c1ccco1)Cc1ccccc1
3. CC(C)(C)N(CCO)CCC(=O)c1ccc(C#N)cc1

5.40
5.74
5.00

# batch: return pIC50 for each of the 6 molecules below
1. CC(C)N(CCO)CCC(=O)c1ccc(F)cc1
2. Cc1ccc(C(=O)CCN(Cc2ccccc2)C(C)(C)C)o1
3. CCc1nccnc1C(=O)CCN(CCO)C(C)C
4. CC(C)N(CCC(=O)c1ccc(Cl)s1)Cc1ccccc1
5. O=C(CCN(CCO)Cc1ccccc1)c1ccncc1
6. CN(CCC(=O)c1ccncc1)Cc1ccccc1

5.00
5.64
5.11
6.64
5.60
5.70

# batch: return pIC50 for each of the 2 molecules below
1. CC(C)(C)N(CCC(=O)c1ccsc1)Cc1ccccc1
2. CN(CCO)CCC(=O)c1ccsc1

1. 4.96
2. 4.85
